# assayed.system: T1, Human GDF8 homodimer (mature human Growth and Differentiation Factor-8) (human, UniProt O14793 267-375)
# T1 sequence: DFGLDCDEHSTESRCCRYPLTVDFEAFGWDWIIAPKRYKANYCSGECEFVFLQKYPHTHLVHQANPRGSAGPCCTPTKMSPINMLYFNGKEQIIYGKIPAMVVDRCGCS
# experimental.protocol: cell-based or functional assay
Entries get a class label from measured IC50, GDF8-inducible luciferase, A204/Smad2 cells, 0.8 nM GDF8. See ranges: band A = under 0.8 nM, band B = from 0.8 nM up to 8 nM, band C = 8 nM and over

binder="21-E5 (antibody, V domains shown) VH: QVQLVESGPGLVKPSETLSLTCTVYGGSISSGNYYWGWIRQPPGKGLEWIGTIYYSGSAYYNPSLKSRVTMSVDTSKNQFSLKLSSVTAADTAVYYCVRDYYDSSGHYYNWFDPWGQGTTVTVSS VL: AIQMTQSPSSLSASVGDRVTITCRASQDIRHDLGWYQQKPGKAPKRLIYAASSLQSGVPSRFSGSGSGTEFTLTISSLQPEDFATYYCLQHNTYPWTFGQGTKVEIKR" label_value="band C"
binder="4E3-7 (antibody, V domains shown) VH: EVQLLESGGGLVQPGGSLRLSCVASRFTFSSNAMSWVRQAPGTGLEWVSAITGSGSRTYYADSVKGRFTISRDNSKNTVYLQMNSLRGEDTAVYYCAKDQGGTWNYGDFDYWGQGTLVTVSS VL: EIVMTQSPATLSVSPGERATLSCRASQSVSSNLAWYQQKPGQAPRLLIYGASTRATGLPARFSGSGSGTDFTLTISSLQSEDFAVYYCQQYNNWPLTFGGGTKVEIK" label_value="band C"
binder="21-A2 (antibody, V domains shown) VH: QVQLVQSGGGLVQPGGSLRLSCAASGFTFNTYAISWVRQAPGKGLEWVSTITGSGYNTYYADSVKGRFTISRDNSKNTLYLQMSSLRAEDTAVFYCAKDSRYNWNYGIFDYWGQGTTVTVSS VL: DIQMTQSPATLSVSPGERATLSCRASQSVSSNLAWYHQKPGQAPRLLIYGVSTRATGIPARFSGNGSGTEFTLTISSLQSEDFAVYYCQQHNNWPLTFGGGTKVEIKR" label_value="band C"
binder="21-B9 (antibody, V domains shown) VH: QVQLVQSGPGLVKPSETLSLTCTVSGGSISNSNYYWGWIRQPPGKGLEWIGTTYYSGTTYYNPSLKSRVTISVDTSKNQFSLKLSSVTAADTAVYYCARDYYDSSGYYYNWFDPWGQGTTVTVSS VL: DIQLTQSPSSLSASVGDRVTITCRASQDIRNDLGWYQQKPGKAPKRLIYAASSLQSGVPSRFSGSGSGTEFSLTLSSLQPEDFATYFCLQHHIYPWTFGQGTKLEIKR" label_value="band A"
binder="22-E6 (antibody, V domains shown) VH: QVQLVQSGPGLVKPSETLSLTCTVSGGSIITYSYYWGWIRQPPGKGLEWIGTIHHSGSTYYNPSLKSRVTISVDTSKNQFSLTLSSVTAADTAVYYCARDYYDSSGYYYNWFDPWGQGTMVTVSS VL: AIQMTQSPSSLSASVGDRVTITCRASQGIRNDLGWYQQKPGKAPKRLIYAASSLQSGVPSRFSGSGSGTEFTLTISSLQPEDFATYYCLQHNSSPWTFGQGTKVEIKR" label_value="band B"
binder="4B9 (antibody, V domains shown) VH: EVQLLESGGGLVQPGGSLRLSCAASGFTSITYAMSWVRQAPGKGLEWVSAISVSGTNTYYADSVKGRFTISRDKSKNMLYLQMNSLRAEDTAVYYCAKDLLHNWKYGTFDIWGQGTMVTVSS VL: EIVMTQSPATLSVSPGERATLSCRASQSVDSNLVWYQQKPGQVPRLLIYGASTRATGIPARFSGSGSGTEFTLTISSLQSEDFAVYYCQQYNKWPLTFGGGTKVEIK" label_value="band A"
binder="22-D3 (antibody, V domains shown) VH: QVQLVQSGGGLVKPGGSLRLSCAASGFTFSSYSMNWVRQAPGKGLEWVSSISSSSSYIYYADSVKGRFTISRDNAKNSLYLQMNSLRAEDTAVYYCARDRGYTFGVDYWGQGTTVTVSS VL: AIQMTQSPSSLSASVGDRVTITCRASQGIRNDLGWYQQKPGKAPKRLIYAASSLQSGVPSRFSGSGSGTEFTLTISSLQPEDFATYYCLQHNSYPYTFGQGTKVEIKR" label_value="band C"
binder="21-E9 (antibody, V domains shown) VH: EVQLVQLGPGLVKPSETLSLTCTVSGGSISNSNYYWGWIRQPPGKGLEWIGTTYYSGTTYYNPSLKSRVTISVDTSKNQFSLKLSSVTAADTAVYYCARDYYDSSGYYYNWFDPWGQGTTVTVSS VL: AIQMTQSPSSLSASVGDRVTITCRASQDIRNDLGWYQQKPGKAPKRLIYAASSLQSGVPSRFSGSGSGTEFSLTLSSLQPEDFATYFCLQHHIYPWTFGQGTKVEIKR" label_value="band B"
binder="3A4-3 (antibody, V domains shown) VH: QVQLVQSGGGLVKPGGSLRLSCAASGFIFNTYTMNWVRQAPGKGLEWVSSITSRGTYIFYSDSLKGRFTISRDNANNSLFLQMNSLRVEDTAVYYCSRDRGYTFGPDYWGQGTLVTVSS VL: DIQMTQSPSSLSASVGDRVTITCRASQDIRNDLGWYQQKPGKAPKGLIYAASSLQSGVPSRFSGSGSGTEFTLTISSLQPEDFATYHCLHYDFHPRTFGQGTKVEIK" label_value="band B"
